# testedTarget: Aminopeptidase N (Sus scrofa)
# Sequence (P15145 whole entry): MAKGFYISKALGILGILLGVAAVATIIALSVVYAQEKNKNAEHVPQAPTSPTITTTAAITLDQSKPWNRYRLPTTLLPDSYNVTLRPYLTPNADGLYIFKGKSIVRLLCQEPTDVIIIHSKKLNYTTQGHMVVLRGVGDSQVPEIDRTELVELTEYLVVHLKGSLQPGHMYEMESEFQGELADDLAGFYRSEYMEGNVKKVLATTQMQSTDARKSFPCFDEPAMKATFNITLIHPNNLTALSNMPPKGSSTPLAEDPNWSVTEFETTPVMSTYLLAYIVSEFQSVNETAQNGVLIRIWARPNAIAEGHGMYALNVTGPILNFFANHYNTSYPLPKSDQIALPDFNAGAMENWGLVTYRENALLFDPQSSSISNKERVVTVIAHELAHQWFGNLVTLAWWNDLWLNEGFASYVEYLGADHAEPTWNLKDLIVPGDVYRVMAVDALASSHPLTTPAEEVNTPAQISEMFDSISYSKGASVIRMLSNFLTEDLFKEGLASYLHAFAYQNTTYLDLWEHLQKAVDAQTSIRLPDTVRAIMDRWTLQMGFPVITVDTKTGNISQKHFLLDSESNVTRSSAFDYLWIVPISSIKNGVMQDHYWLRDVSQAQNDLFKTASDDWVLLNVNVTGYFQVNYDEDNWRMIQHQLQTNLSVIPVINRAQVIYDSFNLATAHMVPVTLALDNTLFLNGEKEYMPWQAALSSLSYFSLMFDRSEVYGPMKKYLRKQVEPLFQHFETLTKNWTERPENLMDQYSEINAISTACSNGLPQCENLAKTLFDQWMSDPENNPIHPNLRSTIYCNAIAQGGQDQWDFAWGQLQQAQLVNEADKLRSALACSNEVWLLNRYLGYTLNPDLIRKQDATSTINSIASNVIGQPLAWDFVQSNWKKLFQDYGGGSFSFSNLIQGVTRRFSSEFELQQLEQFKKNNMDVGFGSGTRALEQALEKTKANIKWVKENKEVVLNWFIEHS
Output T for records whose IC50 is lower than 50 µM, F for records at or above 50 µM.

molecule	answerLabel
O=C(CN1C(=O)CC[C@H](NC(=O)c2cc(O)c(O)c(O)c2)C1=O)NO	T
COC(=O)CC(NC(=O)CN1C(=O)CC[C@H](NC(=O)c2cc(OC)c(OC)c(OC)c2)C1=O)C(=O)OC (single isomer, unassigned)	T
O=C(O)CNC(=O)CN1C(=O)CC[C@H](NC(=O)c2cc(O)c(O)c(O)c2)C1=O	F
COC(=O)[C@H](CCCNC(=N)N[N+](=O)[O-])NC(=O)CN1C(=O)CC[C@H](NC(=O)c2cc(OC)c(OC)c(OC)c2)C1=O	T
CC(C)C[C@H](NC(=O)CN1C(=O)CC[C@H](NC(=O)c2cc(O)c(O)c(O)c2)C1=O)C(=O)O	F
